Biological target: TRKA (Homo sapiens (Human))
Sequence (P04629 33-796): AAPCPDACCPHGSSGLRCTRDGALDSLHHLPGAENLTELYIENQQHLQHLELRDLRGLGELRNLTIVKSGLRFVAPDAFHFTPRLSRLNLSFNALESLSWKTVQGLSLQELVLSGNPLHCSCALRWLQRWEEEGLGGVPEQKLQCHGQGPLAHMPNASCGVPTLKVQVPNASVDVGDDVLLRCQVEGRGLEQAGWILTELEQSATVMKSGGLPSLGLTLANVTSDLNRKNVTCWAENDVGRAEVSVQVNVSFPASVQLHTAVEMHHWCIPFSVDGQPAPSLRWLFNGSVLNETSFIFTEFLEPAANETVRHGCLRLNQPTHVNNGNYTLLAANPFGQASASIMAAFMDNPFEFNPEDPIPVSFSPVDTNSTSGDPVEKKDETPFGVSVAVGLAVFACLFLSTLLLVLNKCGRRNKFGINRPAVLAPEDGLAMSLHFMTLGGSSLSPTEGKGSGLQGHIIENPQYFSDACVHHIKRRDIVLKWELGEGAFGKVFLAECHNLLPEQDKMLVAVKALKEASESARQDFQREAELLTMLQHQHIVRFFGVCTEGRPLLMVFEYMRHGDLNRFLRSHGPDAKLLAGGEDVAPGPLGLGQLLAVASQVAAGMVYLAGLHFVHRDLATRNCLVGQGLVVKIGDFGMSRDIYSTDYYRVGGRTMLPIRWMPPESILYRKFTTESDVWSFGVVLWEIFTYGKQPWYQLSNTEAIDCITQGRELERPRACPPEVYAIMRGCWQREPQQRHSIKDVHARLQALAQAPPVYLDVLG
Test: Radio-tagged HotSpot kinase assay, TRKA
Format: biochemical
IC50 values by entry

Query string: Record request: IC50 value, item `CONC(=O)c1cnn2ccc(N[C@H](C)c3cc(F)cc(F)c3F)nc12`
Result string: 5 to 50 nM

Query string: Moving on to the next compound: `C[C@@H](Nc1ccn2ncc(C3=NC(=O)C(C)(C)N3)c2n1)c1cc(F)ccc1OC(F)(F)F`
Result string: < 0.5 nM

Query string: Same read-out for `C[C@@H](Nc1ccn2ncc(C3=NOCCN3)c2n1)c1cc(F)cc(C(F)(F)F)c1F` ?
Result string: 0.5 to 5 nM

Query string: Same for `C[C@@H](Nc1ccn2ncc(OC3=NCC(C)(C)N3)c2n1)c1cc(F)cc(F)c1F`
Result string: 0.5 to 5 nM

Query string: Do the same for `C[C@@H](Nc1ccn2ncc(C3=NC(=O)C(C)(C)N3)c2n1)c1cc(F)cnc1OC(F)(F)F` please
Result string: < 0.5 nM

Query string: Same thing, different compound: `C[C@@H](Nc1ccn2ncc(C3=NOCC(C)(C)N3)c2n1)c1cc(F)ccc1OC(F)F`
Result string: 0.5 to 5 nM

Query string: Query `CCOc1ncc(F)cc1[C@@H](C)Nc1ccn2ncc(C3=NOCCN3)c2n1` next
Result string: < 0.5 nM

Query string: Please give the result for `C[C@@H](Nc1ccn2ncc(C3=NC(=O)C(C)(C)N3)c2n1)c1cc(F)cnc1OCC(F)(F)F` too.
Result string: < 0.5 nM
